system: REF^54–155 (REF2-I RRM domain) (Mus musculus, UniProt Q9JJW6)
Construct: made in house
assay explanation: NMR chemical shift titration of 15N-REF^54–155 with viral peptides (dissociation constants)
Format: binding, murine
pKd: −log10 of the molar value. Where no end group is shown, it is not given here.
parameter measured: pKd

Record request: pKd value, item NRYGKKIKFGT [KSHV ORF57^100–110, reference compound]
< 1.00

// query: SVWSRAGARR [ICP27^103–112 L108A]
< 2.30

SVWSALGARR [ICP27^103–112 R107A] , same question.
< 2.00

What do you get for SCKTSWADRAREAAAQRR [HVS ORF57^103–120 V112A] ?
3.81

Same again, this time with SCKTSWADAVREAAAQRR [HVS ORF57^103–120 R111A]
3.60

Repeat with TGYARIERGHRR [VZV ORF4^108–119]
< 3.00

* * *

system: REF^54–155 (REF2-I RRM domain) (Mus musculus, UniProt Q9JJW6)
Construct: made in house
assay explanation: NMR chemical shift titration of 15N-REF^54–155 with viral peptides (dissociation constants)
Format: binding, murine
assay context: chemical shift changes in 1H-15N correlation spectra of 100 µM 15N-REF^54–155 versus increasing peptide concentration, fitted to standard equation; 30°C; NMR buffer 20 mM phosphate, 50 mM NaCl, 50 mM L-Arg/L-Glu/β-mercaptoethanol, 10 mM EDTA, pH 6.2; read-out: K D
parameter measured: Kd (µM)
Write the answer as a number in µM, unit excluded.

Give the measured Kd of …SCKTSWADRVREAAAQRR [HVS ORF57^8–120, recombinant fragment aa 8–120 of Herpesvirus saimiri ORF57, with T7 and poly-His tags] .
78

* * *

system: REF^54–155 (REF2-I RRM domain) (Mus musculus)
Construct: made in house
assay explanation: NMR chemical shift titration of 15N-REF^54–155 with viral peptides (dissociation constants)
Format: binding, murine
pKd: −log10 of the molar value. Where no end group is shown, it is not given here.
parameter measured: pKd

Solved entries (count: 2):
# monomer sequence, system, pKd
data = [
    ("SVASRLGARR [ICP27^103–112 W105A]", "REF^54–155 (REF2-I RRM domain) (Mus musculus)", 3.26),
    ("SCKTSAADRVREAAAQRR [HVS ORF57^103–120 W108A]", "REF^54–155 (REF2-I RRM domain) (Mus musculus)", "< 2.12"),
]

API: the following record is the query input.
For KTSWADRVREA [HVS ORF57^105–115] , what is its reported pKd?
< 3.00
